Target: Tyrosine-protein kinase JAK2 (Homo sapiens);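 also: mean JAK2 inhibition from the GSK PKIS screen, compounds tested at 1 µM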
Settings: at 1 µM
The entries below are paired with their reported inhibition.
The figure you give is taken to be in %; do not add the unit.

Recorded results for 4 molecules are shown here.
{"smiles repr": "Fc1cccc(COc2ccc(Nc3ncnc4cc(-c5ccc[nH]5)sc34)cc2Cl)c1", "assay metric": "inhibition", "val": 3.62}
{"smiles repr": "COc1cc2ncn(-c3cc(O[C@H](C)c4ccccc4Cl)c(C(N)=O)s3)c2cc1OC", "assay metric": "inhibition", "val": 6.6}
{"smiles repr": "Nc1ncnc2occ(-c3ccc(NC(=O)Nc4cc(C(F)(F)F)cc(C(F)(F)F)c4)cc3)c12", "assay metric": "inhibition", "val": 1.44}
{"smiles repr": "COc1cc2ncn(-c3cc(O[C@@H](C)c4ccccc4Cl)c(C(N)=O)s3)c2cc1OC", "assay metric": "inhibition", "val": 1.08}

Proceeding to the next molecule to report its inhibition.
Prompt line: I have this molecule here, COC(=O)Nc1nc2cc(Oc3ccc(NC(=O)Nc4cccc(C(=O)O)c4)cc3)ccc2[nH]1 , and I need its recorded inhibition.
Response line: 4.54

---

Biological target: Mitogen-activated protein kinase kinase kinase kinase 2 (Homo sapiens) (UniProt Q12851);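 also: reported value is a mean of MAP4K2 inhibition at 1 µM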
Sequence (Q12851 whole entry): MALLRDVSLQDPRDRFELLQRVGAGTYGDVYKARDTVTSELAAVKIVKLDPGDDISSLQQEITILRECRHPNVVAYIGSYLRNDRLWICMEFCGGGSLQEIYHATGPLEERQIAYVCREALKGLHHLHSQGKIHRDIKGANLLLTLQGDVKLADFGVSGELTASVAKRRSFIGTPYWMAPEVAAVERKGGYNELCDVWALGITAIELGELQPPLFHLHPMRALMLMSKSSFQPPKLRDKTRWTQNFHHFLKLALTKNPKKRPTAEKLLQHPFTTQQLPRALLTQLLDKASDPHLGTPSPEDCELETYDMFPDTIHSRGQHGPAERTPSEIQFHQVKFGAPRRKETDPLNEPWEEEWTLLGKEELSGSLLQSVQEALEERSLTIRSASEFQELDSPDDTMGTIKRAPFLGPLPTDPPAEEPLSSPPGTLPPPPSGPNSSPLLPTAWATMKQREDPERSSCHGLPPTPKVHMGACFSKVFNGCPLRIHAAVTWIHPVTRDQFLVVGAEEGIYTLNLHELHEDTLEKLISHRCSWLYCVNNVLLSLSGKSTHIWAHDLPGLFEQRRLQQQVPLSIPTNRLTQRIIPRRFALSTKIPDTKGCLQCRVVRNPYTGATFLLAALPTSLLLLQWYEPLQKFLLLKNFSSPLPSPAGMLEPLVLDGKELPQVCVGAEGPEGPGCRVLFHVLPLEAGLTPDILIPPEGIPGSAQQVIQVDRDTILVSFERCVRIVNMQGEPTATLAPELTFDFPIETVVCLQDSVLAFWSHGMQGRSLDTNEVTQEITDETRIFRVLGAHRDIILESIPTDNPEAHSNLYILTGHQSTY
Conditions: at 1 µM
assay metric: inhibition (%)
The figure you give is taken to be in %; do not add the unit.

Recorded results for 2 compounds are shown here.
{"smiles repr": "COC(=O)Nc1nc2cc(Oc3ccc(NC(=O)Nc4cccc(C(=O)O)c4)cc3)ccc2[nH]1", "inhibition, %": 1.11}
{"smiles repr": "Cc1nnc(-c2ccc(C)c(-c3ccc(C(=O)Nc4cccc(C#N)c4)cc3)c2)o1", "inhibition, %": 2.09}

Prompt line: I have this compound here, COc1ccc(-c2coc3ncnc(N)c23)cc1 , and I need its recorded inhibition.
Response line: 6.08

---

Target: MAP/microtubule affinity-regulating kinase 3 (Homo sapiens);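 also: mean percent inhibition of MARK3 kinase activity, measured within the GSK PKIS screening panel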
Settings: at 0.1 µM
Please assign a class to every record based on measured inhibition, with ranges lower = under 0.6%, middle = from 0.6% up to 3%, upper = 3% and over

Please review the following examples before continuing.
{"molecule": "CC1=C(C(=O)Nc2ccc3[nH]ncc3c2)C(c2ccc3ccccc3c2)CC(=O)N1 (centres undefined)", "category": "lower"}
{"molecule": "COc1cc2c(cc1Nc1nc(N3CCc4ccccc43)c3cc[nH]c3n1)N(C(=O)CN(C)C)CC2", "category": "upper"}
{"molecule": "CCn1c(-c2nonc2N)nc2c(N3CCCC3)nccc21", "category": "middle"}

Prompt line: Looking at Fc1cccc(COc2ccc(Nc3ncnc4sc(-c5cccs5)cc34)cc2Cl)c1 , which class would you pick?
Response line: lower

Prompt line: Looking at CC(C)=Cc1cccc2c1/C(=N/Nc1ccc(S(N)(=O)=O)cc1)C(=O)N2 , which class would you pick?
Response line: middle

Prompt line: Looking at CCn1c(-c2nonc2N)nc2cncc(C(=O)N3CC[C@H](N)C3)c21 , which class would you pick?
Response line: upper

Prompt line: Looking at NCc1ccc(-c2nc(-c3ccc(Cl)c(O)c3)c(-c3ccncc3)[nH]2)cc1 , which class would you pick?
Response line: lower

Prompt line: Looking at CS(=O)(=O)CCNCc1ccc(-c2ccc3ncnc(Nc4ccc(OCc5cccc(F)c5)c(C(F)(F)F)c4)c3c2)o1 , which class would you pick?
Response line: middle

Prompt line: Looking at [O-][S+]1CCN(Cc2ccc(-c3ccc4ncnc(Nc5ccc(OCc6ccccc6)c(F)c5)c4c3)o2)CC1 , which class would you pick?
Response line: middle
